A collection of compounds and their measured melting point
Outcome Measure: melting point

{"columns": ["Compound", "Result"],
 "data": [
  ["CC(=O)Nc1nc2c(Oc3cc(-c4ccc(C(F)(F)F)cc4)ncn3)cccc2o1", "205 °C"],
  ["CC(C)(C)Nc1nc2cc(CC(=O)O)ccc2o1", "175 to 176 °C"],
  ["CSc1ccc(C)cc1S(=O)(=O)NC(C)(C)C", "119 to 121 °C"],
  ["CCOC(=O)c1cn(Cc2cn(-c3ccc(N4CC(CNC(=O)OC)OC4=O)cc3F)nn2)nc1N (centres undefined)", "98 to 100 °C"],
  ["CCCOc1ccc(CC(=O)NCC(=O)O)cc1Cl", "110 to 112 °C"],
  ["Cc1cc(OCc2ccccc2)c(C23CC4CC(CC(C4)C2)C3)cc1Br", "138 to 139 °C"],
  ["O=C1c2ccccc2C(=O)N1CSc1cccnc1", "123 to 124 °C"],
  ["O=C(NCCCO)c1cccc(-c2cccn3c(=O)n(Cc4cccc(C(F)(F)F)c4)nc23)c1", "148 to 149 °C"],
  ["CN(C)C(=O)NS(=O)(=O)c1ccccc1OC(Cl)=CCl", "218 to 220 °C"],
  ["CC(C)c1cc(-c2ccc(F)cc2)nc(N(C)S(C)(=O)=O)n1", "138 to 139 °C"],
  ["CCCCCCCCCCCc1[nH]c2ccc(C(=O)OC)cc2c1C=O", "162 to 165 °C"],
  ["CCCCC1(CC)CSc2ccccc2N(c2ccccc2)C1=O (centres undefined)", "90 °C"],
  ["O=C(O)c1ccc(Cl)cc1NC(=O)C(CS)Cc1ccccc1 (centres undefined)", "134 to 136 °C"],
  ["CC(C)CC1(CCCCCl)C(=O)Nc2c(Cl)cc(Cl)cc21 (centres undefined)", "93 to 94 °C"],
  ["CC(C)(C)OC(=O)NC[C@H]1CN(c2ccc3c(c2)CCCCC3=O)C(=O)O1", "155 to 157 °C"],
  ["CCOC(=O)c1sc2nc(SCCCN3CCN(c4ccccn4)CC3)[nH]c(=O)c2c1C", "160 to 162 °C"],
  ["c1ccc(N(c2ccccc2)c2ccc(-c3ccc(-c4ccnc(Nc5ccc6ccccc6c5)n4)cc3)cc2)cc1", "> 300 °C"],
  ["C=CCOC(=O)c1c(Oc2nc(OC)cc(OC)n2)ccc2[nH]c(C)c(N)c12", "132 to 135 °C"],
  ["CCOC(=O)C=C1CN=C(c2ccccc2Cl)c2cc(Cl)ccc2N1", "103 to 105 °C"],
  ["CCCCCCCCCCCCCCCCCCCCCCSC[C@H](NC(=O)CCCCCCCCCCCCCCC)C(=O)O", "90 to 92 °C"],
  ["CCn1cc(-c2nnn[nH]2)c(=O)c2cc(F)c(N3CCN(c4ncccn4)CC3)c(OC(F)F)c21", "265 to 268 °C"],
  ["Cc1cc(CN(C(=O)CCl)c2c(C)cccc2C)on1", "78 to 82 °C"],
  ["CCNS(=O)(=O)c1nc2ccccc2n1CC", "135 to 139 °C"],
  ["CCCNC(=S)NS(=O)(=O)c1cc2c(cc1OC)OCCC2CNC(=O)N1CC(C)=C(CC)C1=O (centres undefined)", "96 to 98 °C"],
  ["CCCCc1c2c(nn1CCCC)c(N)nc1ccccc12", "143 to 145 °C"],
  ["O=C1c2ccccc2C(=O)N1Cc1cc(Cl)ccc1OCc1cccnc1", "173 to 175 °C"],
  ["O=P(O)(O)C1=CCCCC1", "128 °C"],
  ["CNC(=NS(C)(=O)=O)NCCCSc1ncc(Br)c(NC(N)=NCC(F)(F)F)n1", "166 to 167 °C"],
  ["Cc1ccc(-n2nc3c(cc2=O)CCc2cnccc2-3)cc1", "188 to 189 °C"],
  ["Cc1oc(-c2ccccc2)nc1COc1ccc(CN(O)C(N)=O)cc1F", "143 to 144 °C"],
  ["CCOC(=O)c1c(C)nn(C)c1S(N)(=O)=O", "112 to 113 °C"],
  ["CN1CC[C@H](c2c(O)cc(O)c3c(=O)cc(-c4ccccc4Cl)oc23)[C@H](O)C1", "182 °C"],
  ["O=S(=O)(c1ccc(F)cc1)N1CCCC1c1ccc(F)c(Cl)c1 (racemic)", "116 °C"],
  ["C=CCOC(=O)c1ccc(OC(=O)c2ccc(OC)c(C34CC5CC(CC(C5)C3)C4)c2)c(C(C)(C)C)c1", "113 to 115 °C"],
  ["O=C(c1ccccc1)c1ccc(OCCBr)cc1O", "87 to 89.5 °C"],
  ["N#CCCNC(=O)c1cccc(-c2cccc3cc(Cc4cccc(C(F)(F)F)c4)oc23)c1", "154 to 155 °C"],
  ["O=[N+]([O-])c1ccc(C2(Cn3cncn3)OCCO2)cc1", "160 °C"],
  ["CC(C)(C)c1cc(C(=O)Nc2cc(Cl)c(Cl)cc2NC(=O)NC23CC4CC(CC(C4)C2)C3)cc(C(C)(C)C)c1O", "203 to 207 °C"],
  ["Cc1cc(C(F)(F)F)n2nc(NS(=O)(=O)c3ccccc3Cl)nc2n1", "203 to 204 °C"]
]}

Data provenance is a melting point compilation (Tetko et al.; mined from patent text by program, amines drawn as free bases though some values may be those of a salt).
